Test system: T. cruzi-infected H9C2 cardiomyocytes, high-content imaging
PROTOCOL SUMMARY: intracellular T. cruzi amastigote inhibition, imaging, H9C2 host cardiomyocytes, host toxicity (AID 1159565);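 note: infected cells incubated 72 h after plating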
ASSAY SETUP: measured here: H9C2 host cell toxicity
pIC50: −log10 of the molar value.
MEASUREMENT KIND: pIC50

MOLECULE | ASSAYED TARGET | pIC50
O=C(COc1nn(-c2ccccc2)c2ncccc12)NCc1ccccc1 | T. cruzi-infected H9C2 cardiomyocytes, high-content imaging | < 4.30
c1ccc(CNc2cccc3ccncc23)cc1 | T. cruzi-infected H9C2 cardiomyocytes, high-content imaging | < 4.30
CC(c1ccccn1)N(C)Cc1nc2ccccc2n1C(C)C (configuration not stated) | T. cruzi-infected H9C2 cardiomyocytes, high-content imaging | < 4.30
CNC(=O)C1Cc2ccccc2N1C(=O)COc1cccc(OC)c1 (configuration not stated) | T. cruzi-infected H9C2 cardiomyocytes, high-content imaging | < 4.30
Cc1occc1C(=O)Nc1ccccc1C(=O)Nc1nccs1 | T. cruzi-infected H9C2 cardiomyocytes, high-content imaging | < 4.30

Go through the list and state pIC50 for each entry.
1. COc1ccc(OC)c(NC(=O)c2ccc([N+](=O)[O-])o2)c1
2. CNc1c(C(N)=O)c(-c2ccc3scnc3c2)nn1CC(F)(F)F
3. COc1ccc(S(=O)(=O)Nc2ccc(CN3CCN(C(=O)c4cccc(C#N)c4)CC3)cc2)cc1
4. O=C(CN1CCC2(O)CCCCC2C1c1ccc2c(c1)OCO2)Nc1ccc(Cl)cc1Cl (configuration not stated)
5. O=C(NCCc1cccnc1)c1csc(-c2ccccc2)n1
6. O=S(=O)(c1ccccc1C(F)(F)F)N1CCN(Cc2ccc(-n3ccnc3)cc2)CC1

Reply |
5.40
< 4.30
< 4.30
< 4.30
< 4.30
< 4.30
